Origin of the recorded values: patent US4426390A

# experimental-protocol: Stability (half life) in phosphate buffers of various pH
# Type: physicochemical
# condition-description: pH 7, 0.05 M phosphate buffer, 28° C.
measure: half-life (h)
# unit: h | format: bare number

Quick note, half-life for CCC1C(=O)N2C(C(=O)O)=C(SCCNC(C)=O)CC12 (centres unmarked) [PS-5, reference compound] landed at 38.2

Quick note, half-life for CC[C@H]1C(=O)N2C(C(=O)O)=C(SCCNC(=O)CCNC(=O)C(O)C(C)(C)CO)C[C@H]12 (relative stereo) [OA-6129A] landed at 57.7

---

# Test system: Citrobacter Freundii GN346
# experimental-protocol: MIC by agar dilution method
# Type: cell-based
# condition-description: 37° C., 18 hours
measure: MIC (µg/mL)
# unit: µg/mL | format: bare number

Quick note, MIC for CC(O)[C@H]1C(=O)N2C(C(=O)O)=C(SCCNC(=O)CCNC(=O)C(O)C(C)(C)CO)C[C@H]12 (relative stereo) [OA-6129B2] landed at 25

Quick note, MIC for CC(O)[C@@H]1C(=O)N2C(C(=O)O)=C(SCCNC(=O)CCNC(=O)C(O)C(C)(C)CO)C[C@H]12 (relative stereo) [OA-6129B1] landed at 6.25

Quick note, MIC for CC[C@H]1C(=O)N2C(C(=O)O)=C(SCCNC(=O)CCNC(=O)C(O)C(C)(C)CO)C[C@H]12 (relative stereo) [OA-6129A] landed at 50

Quick note, MIC for CC(OS(=O)(=O)O)[C@@H]1C(=O)N2C(C(=O)O)=C(SCCNC(=O)CCNC(=O)C(O)C(C)(C)CO)C[C@H]12 (relative stereo) [OA-6129C] landed at 50

Quick note, MIC for CCC1C(=O)N2C(C(=O)O)=C(SCCNC(C)=O)CC12 (stereo not drawn) [PS-5, reference compound] landed at 3.13

---

# experimental-protocol: Stability (half life) in phosphate buffers of various pH
# Assay type: physicochemical
# condition-description: pH 4, 0.05 M phosphate buffer, 28° C.
Give measured half-life for each item. Keep answers brief.
# unit: min | format: bare number

Quick note, half-life for CC[C@H]1C(=O)N2C(C(=O)O)=C(SCCNC(=O)CCNC(=O)C(O)C(C)(C)CO)C[C@H]12 (relative stereo) [OA-6129A] landed at 63

Quick note, half-life for CCC1C(=O)N2C(C(=O)O)=C(SCCNC(C)=O)CC12 (centres unmarked) [PS-5, reference compound] landed at 12

---

# experimental-protocol: Stability (half life) in phosphate buffers of various pH
# Format: physicochemical
# condition-description: pH 6, 0.05 M phosphate buffer, 28° C.
measure: half-life (h)
# unit: h | format: bare number

Quick note, half-life for CCC1C(=O)N2C(C(=O)O)=C(SCCNC(C)=O)CC12 (centres unmarked) [PS-5, reference compound] landed at 13.2

Quick note, half-life for CC[C@H]1C(=O)N2C(C(=O)O)=C(SCCNC(=O)CCNC(=O)C(O)C(C)(C)CO)C[C@H]12 (relative stereo) [OA-6129A] landed at 21.2

---

# System: Ent. sp. E8
# experimental-protocol: MIC by agar dilution method
# Assay type: cell-based
# condition-description: Ent. sp. E8; agar dilution, 37° C., 18 hours; read-out: MIC
measure: MIC (µg/mL)
# unit: µg/mL | format: bare number

Quick note, MIC for CC(O)[C@@H]1C(=O)N2C(C(=O)O)=C(SCCNC(=O)CCNC(=O)C(O)C(C)(C)CO)C[C@H]12 (relative stereo) landed at 0.39

Quick note, MIC for CC(O)[C@H]1C(=O)N2C(C(=O)O)=C(SCCNC(=O)CCNC(=O)C(O)C(C)(C)CO)C[C@H]12 (relative stereo) landed at 25

Quick note, MIC for CCC1C(=O)N2C(C(=O)O)=C(SCCNC(C)=O)CC12 (centres unmarked) [PS-5, reference compound] landed at 3.13

Quick note, MIC for CC[C@H]1C(=O)N2C(C(=O)O)=C(SCCNC(=O)CCNC(=O)C(O)C(C)(C)CO)C[C@H]12 (relative stereo) [OA-6129A] landed at 12.5

Quick note, MIC for CC(OS(=O)(=O)O)[C@@H]1C(=O)N2C(C(=O)O)=C(SCCNC(=O)CCNC(=O)C(O)C(C)(C)CO)C[C@H]12 (relative stereo) [OA-6129C] landed at 1.56

---

# experimental-protocol: Stability (half life) in phosphate buffers of various pH
# Assay type: physicochemical
# condition-description: pH 8, 0.05 M phosphate buffer, 28° C.
# Procedure: By adding 2% sodium hydroxide or 10% hydrochloric acid, the pH of 0.05 M phosphate buffer is adjusted to 4, 5, 6, 7, 8 and 9, respectively, and distributed into test tubes in an amount of 3 ml. […] The time course curve of the concentration decrease of antibiotic OA-6129A is drawn by spectrophotometric measurement at 300 nm, from which the half life of the antibiotic at the indicated pH is calculated. […]
Give measured half-life for each item. Keep answers brief.
# unit: days | format: bare number

Quick note, half-life for CCC1C(=O)N2C(C(=O)O)=C(SCCNC(C)=O)CC12 (centres unmarked) [PS-5, reference compound] landed at 3.25

Quick note, half-life for CC[C@H]1C(=O)N2C(C(=O)O)=C(SCCNC(=O)CCNC(=O)C(O)C(C)(C)CO)C[C@H]12 (relative stereo) [OA-6129A] landed at 5.35

---

# System: Proteus mirabilis P6
# experimental-protocol: MIC by agar dilution method
# Assay type: cell-based
# condition-description: Proteus mirabilis P6; agar dilution, 37° C., 18 hours; read-out: MIC
Give measured MIC for each item. Keep answers brief.
# unit: µg/mL | format: bare number

Quick note, MIC for CCC1C(=O)N2C(C(=O)O)=C(SCCNC(C)=O)CC12 (centres unmarked) [PS-5, reference compound] landed at 6.25

Quick note, MIC for CC(OS(=O)(=O)O)[C@@H]1C(=O)N2C(C(=O)O)=C(SCCNC(=O)CCNC(=O)C(O)C(C)(C)CO)C[C@H]12 (relative stereo) [OA-6129C] landed at 0.78

Quick note, MIC for CC(O)[C@H]1C(=O)N2C(C(=O)O)=C(SCCNC(=O)CCNC(=O)C(O)C(C)(C)CO)C[C@H]12 (relative stereo) [OA-6129B2] landed at 50

Quick note, MIC for CC(O)[C@@H]1C(=O)N2C(C(=O)O)=C(SCCNC(=O)CCNC(=O)C(O)C(C)(C)CO)C[C@H]12 (relative stereo) [OA-6129B1] landed at 0.78

Quick note, MIC for CC[C@H]1C(=O)N2C(C(=O)O)=C(SCCNC(=O)CCNC(=O)C(O)C(C)(C)CO)C[C@H]12 (relative stereo) [OA-6129A] landed at 50

---

# Tested on: Providencia sp. P8
# experimental-protocol: MIC by agar dilution method
# Type: cell-based
# condition-description: Providencia sp. P8; agar dilution, 37° C., 18 hours; read-out: MIC
Give measured MIC for each item. Keep answers brief.
# unit: µg/mL | format: bare number

The molecule CC(OS(=O)(=O)O)[C@@H]1C(=O)N2C(C(=O)O)=C(SCCNC(=O)CCNC(=O)C(O)C(C)(C)CO)C[C@H]12 (relative stereo) [OA-6129C] on Providencia sp. P8: MIC was 0.2

The molecule CCC1C(=O)N2C(C(=O)O)=C(SCCNC(C)=O)CC12 (centres unmarked) [PS-5, reference compound] on Providencia sp. P8: MIC was 3.13

The molecule CC(O)[C@H]1C(=O)N2C(C(=O)O)=C(SCCNC(=O)CCNC(=O)C(O)C(C)(C)CO)C[C@H]12 (relative stereo) on Providencia sp. P8: MIC was 6.25

The molecule CC(O)[C@@H]1C(=O)N2C(C(=O)O)=C(SCCNC(=O)CCNC(=O)C(O)C(C)(C)CO)C[C@H]12 (relative stereo) on Providencia sp. P8: MIC was 0.2

The molecule CC[C@H]1C(=O)N2C(C(=O)O)=C(SCCNC(=O)CCNC(=O)C(O)C(C)(C)CO)C[C@H]12 (relative stereo) [OA-6129A] on Providencia sp. P8: MIC was 12.5

---

Give measured MIC for each item. Keep answers brief.
# unit: µg/mL | format: bare number

The compound Cc1nnc(SCC2=C(C(=O)O)N3C(=O)[C@@H](NC(=O)Cn4cnnn4)[C@H]3SC2)s1 [CEZ, reference compound] on Klebsiella pneumoniae K13: MIC was 25

The compound CCC1C(=O)N2C(C(=O)O)=C(SCCNC(C)=O)CC12 (stereo not drawn) [PS-5, reference compound] on Klebsiella pneumoniae K13: MIC was 3.13

The compound CC(O)[C@H]1C(=O)N2C(C(=O)O)=C(SCCNC(=O)CCNC(=O)C(O)C(C)(C)CO)C[C@H]12 (relative stereo) on Klebsiella pneumoniae K13: MIC was 12.5

The compound CC[C@H]1C(=O)N2C(C(=O)O)=C(SCCNC(=O)CCNC(=O)C(O)C(C)(C)CO)C[C@H]12 (relative stereo) [OA-6129A] on Klebsiella pneumoniae K13: MIC was 50

The compound CC(OS(=O)(=O)O)[C@@H]1C(=O)N2C(C(=O)O)=C(SCCNC(=O)CCNC(=O)C(O)C(C)(C)CO)C[C@H]12 (relative stereo) [OA-6129C] on Klebsiella pneumoniae K13: MIC was 12.5
